EXPERIMENT NOTES: self-splicing fitness, log relative to wild type (ln ratio); higher = more splicing; Tetrahymena group I intron in knt gene, E. coli kanamycin selection, DiMSum; sequences stand for … in CUCUCU…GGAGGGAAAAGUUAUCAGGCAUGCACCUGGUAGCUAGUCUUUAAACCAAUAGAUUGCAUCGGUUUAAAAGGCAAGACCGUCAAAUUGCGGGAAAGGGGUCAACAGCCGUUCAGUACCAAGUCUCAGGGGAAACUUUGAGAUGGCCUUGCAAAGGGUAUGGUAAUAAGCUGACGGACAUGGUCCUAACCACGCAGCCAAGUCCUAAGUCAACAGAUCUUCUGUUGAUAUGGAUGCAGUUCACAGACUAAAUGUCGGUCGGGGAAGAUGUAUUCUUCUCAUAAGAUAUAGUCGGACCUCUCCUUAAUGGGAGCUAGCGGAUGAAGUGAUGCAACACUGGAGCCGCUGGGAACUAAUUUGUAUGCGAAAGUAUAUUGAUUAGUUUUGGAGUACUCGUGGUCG;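 note: selection with 25 µg/mL kanamycin versus none on LB agar overnight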
EXPERIMENTAL CONTEXT: 30 °C
Quick reference for self-splicing fitness (ln) among some sequences
Quick one: just the number, no unit, thanks!

Before answering, review these 5 worked examples.
RESIDUE STRING: UUAAAGCAAUAUUACGGGAC
MEASUREMENT: -3.27
--
RESIDUE STRING: UCGUAGCAAUAUUACGCGCG
MEASUREMENT: -1.62
--
RESIDUE STRING: GAGAAGCAAUAUUACGGUGU
MEASUREMENT: -3.57
--
RESIDUE STRING: CGUGAGCAAUAUUACGCGGC
MEASUREMENT: -2.91
--
RESIDUE STRING: ACAGAGCAAUAUUACGUUUG
MEASUREMENT: -3.85

Continue with the sequence presented below.
**Query** Report measured self-splicing fitness (ln); entry is AGCCAGCAAUAUUACGGAGG
**Result** -3.01
